subjectOfTest: human PD-L1 / Human PD-1 (Homo sapiens (Human))
experimentNotes: Enzyme-Linked Immunosorbent Assay (ELISA), PD-1/PD-L1 binding
conditionNotes: plate-coated human PD-L1, biotinylated human PD-1
Task for the reader: assign each of the following compounds its reported IC50.

-- ask Retrieve IC50 measured for Cc1c(OCCCN2CCC(O)CC2)cccc1-c1cccc2c1CC[C@@H]2Oc1cc(OCc2cncc(C#N)c2)c(CNCC2CCC(=O)N2)cc1Cl (stereo partly drawn) and print it.
-- reply < 5 nM

-- ask Find the measured IC50 of CCOc1cc(O[C@H]2CCc3c(-c4cccc(OCCCN5CCC5(C)C)c4C)cccc32)c(Cl)cc1CN(C)CCn1nn[nH]c1=O and report it.
-- reply 5 to 500 nM

-- ask Note IC50 for the compound shown: N#Cc1cncc(COc2cc(O[C@H]3CCc4c(-c5cccc(OCCCN6CC(F)(F)C6)c5Cl)cccc43)c(Cl)cc2CNC[C@H]2CCC(=O)N2)c1
-- reply 5 to 500 nM

###

subjectOfTest: human PD-L1 / Human PD-1 (Homo sapiens (Human), UniProt Q9NZQ7)
Sequence (Q9NZQ7 19-239): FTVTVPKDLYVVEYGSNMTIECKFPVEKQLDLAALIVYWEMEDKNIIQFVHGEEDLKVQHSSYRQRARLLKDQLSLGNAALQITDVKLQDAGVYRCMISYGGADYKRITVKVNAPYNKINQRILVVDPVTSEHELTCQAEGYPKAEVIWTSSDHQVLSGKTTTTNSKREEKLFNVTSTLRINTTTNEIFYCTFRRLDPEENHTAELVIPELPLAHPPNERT
experimentNotes: Enzyme-Linked Immunosorbent Assay (ELISA), PD-1/PD-L1 binding
conditionNotes: plate-coated human PD-L1, biotinylated human PD-1
pIC50: −log10 of the molar value.
For each entry below, report its pIC50 value.

-- ask Write down the reported pIC50 (system: human PD-L1 / Human PD-1 (Homo sapiens (Human), UniProt Q9NZQ7)) of CCOc1cc(O[C@H]2CCc3c(-c4cccc(OCCCN5CCC(O)CC5)c4C)cccc32)c(Cl)cc1CN[C@@H](CO)C(=O)O
-- reply > 8.30

-- ask Recall the reported pIC50 of Cc1c(OCCCN2CCC(F)CC2)cccc1-c1cccc2c1CC[C@@H]2Oc1cc(OCc2cc(C#N)cc(C#N)c2)c(CN[C@H]2CCC[C@@H]2O)cc1Cl when tested on human PD-L1 / Human PD-1 (Homo sapiens (Human), UniProt Q9NZQ7).
-- reply > 8.30

-- ask State, for human PD-L1 / Human PD-1 (Homo sapiens (Human), UniProt Q9NZQ7), measured pIC50 of the compound listed here: CC(CO)(NCc1cc(Cl)c(O[C@H]2CCc3c(-c4cccc(OCCCN5CC(F)C5)c4Cl)cccc32)cc1OCc1cncc(C#N)c1)C(=O)O (stereo partly drawn)
-- reply > 8.30

###

Exercise: state measured pIC50 for each of the compounds provided.
subjectOfTest: human PD-L1 / Human PD-1 (Homo sapiens (Human))
experimentNotes: Enzyme-Linked Immunosorbent Assay (ELISA), PD-1/PD-L1 binding
conditionNotes: plate-coated human PD-L1, biotinylated human PD-1
pIC50: −log10 of the molar value.

-- ask Quote pIC50 reported for CC1(O)CN(CCCOc2cccc(-c3cccc4c3CC[C@@H]4Oc3cc(OCc4cncc(C#N)c4)c(CN[C@@](C)(CO)C(=O)O)cc3Cl)c2Cl)C1 please.
-- reply > 8.30

-- ask Check the records and state pIC50 for N#Cc1cncc(COc2cc(O[C@H]3CCc4c(-c5cccc(OCCCN6CCC(F)CC6)c5Cl)cccc43)c(Cl)cc2CNC[C@H]2CCC(=O)N2)c1
-- reply > 8.30

-- ask Supply recorded pIC50 for CCOc1cc(O[C@H]2CCc3c(-c4cccc(OCCCN5CCC5(C)C)c4C)cccc32)c(Cl)cc1CN1CC(CC)(C(=O)O)C1 here.
-- reply 6.30 to 8.30

-- ask Identify pIC50 associated with the compound Cc1c(OCCCN2CC3(CCC3)C2)cccc1-c1cccc2c1CC[C@@H]2Oc1cc(OCc2cc(C#N)cc(C#N)c2)c(CNC[C@@H]2CCC(=O)N2)cc1Cl
-- reply > 8.30

-- ask Tell us which pIC50 value is on record for C[C@@H](O)[C@H](NCc1cc(Cl)c(O[C@H]2CCc3c(-c4cccc(OCCCN5CC(O)C5)c4Cl)cccc32)cc1OCc1cncc(C#N)c1)C(=O)NS(C)(=O)=O
-- reply > 8.30

-- ask Supply recorded pIC50 for CCOc1cc(O[C@H]2CCc3c(-c4cccc(OCCCN5CCC5(C)C)c4C)cccc32)c(Cl)cc1CNCC(C)(C)CO here.
-- reply 6.30 to 8.30

-- ask For the compound C[C@@H](O)[C@H](NCc1cc(Cl)c(O[C@H]2CCc3c(-c4cccc(OCCCN5CCC(O)CC5)c4Cl)cccc32)cc1OCc1cncc(C#N)c1)C(=O)O , give its measured pIC50 value.
-- reply > 8.30
